molecular target: human complement component C5 (human), P01031
Sequence (P01031 19-673 limits assumed, chain 1 of 2): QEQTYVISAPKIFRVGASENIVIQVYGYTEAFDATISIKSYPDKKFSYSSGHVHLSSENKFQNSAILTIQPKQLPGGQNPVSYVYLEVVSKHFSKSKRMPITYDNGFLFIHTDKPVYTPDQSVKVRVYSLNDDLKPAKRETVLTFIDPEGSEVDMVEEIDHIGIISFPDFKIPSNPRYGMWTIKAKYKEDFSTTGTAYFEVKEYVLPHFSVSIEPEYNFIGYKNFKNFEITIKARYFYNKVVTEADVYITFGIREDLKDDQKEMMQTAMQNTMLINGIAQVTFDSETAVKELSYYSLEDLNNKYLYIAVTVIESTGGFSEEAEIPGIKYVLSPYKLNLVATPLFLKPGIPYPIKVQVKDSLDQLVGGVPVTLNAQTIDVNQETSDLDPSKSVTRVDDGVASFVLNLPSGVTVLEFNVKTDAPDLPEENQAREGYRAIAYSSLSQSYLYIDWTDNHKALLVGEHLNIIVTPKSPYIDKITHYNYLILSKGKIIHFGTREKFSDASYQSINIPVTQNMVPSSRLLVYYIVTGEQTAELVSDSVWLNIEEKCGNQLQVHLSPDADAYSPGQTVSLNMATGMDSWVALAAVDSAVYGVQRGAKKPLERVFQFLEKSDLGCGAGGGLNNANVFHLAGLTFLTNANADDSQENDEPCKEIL
Sequence (P01031 678-1676 limits assumed, chain 2 of 2): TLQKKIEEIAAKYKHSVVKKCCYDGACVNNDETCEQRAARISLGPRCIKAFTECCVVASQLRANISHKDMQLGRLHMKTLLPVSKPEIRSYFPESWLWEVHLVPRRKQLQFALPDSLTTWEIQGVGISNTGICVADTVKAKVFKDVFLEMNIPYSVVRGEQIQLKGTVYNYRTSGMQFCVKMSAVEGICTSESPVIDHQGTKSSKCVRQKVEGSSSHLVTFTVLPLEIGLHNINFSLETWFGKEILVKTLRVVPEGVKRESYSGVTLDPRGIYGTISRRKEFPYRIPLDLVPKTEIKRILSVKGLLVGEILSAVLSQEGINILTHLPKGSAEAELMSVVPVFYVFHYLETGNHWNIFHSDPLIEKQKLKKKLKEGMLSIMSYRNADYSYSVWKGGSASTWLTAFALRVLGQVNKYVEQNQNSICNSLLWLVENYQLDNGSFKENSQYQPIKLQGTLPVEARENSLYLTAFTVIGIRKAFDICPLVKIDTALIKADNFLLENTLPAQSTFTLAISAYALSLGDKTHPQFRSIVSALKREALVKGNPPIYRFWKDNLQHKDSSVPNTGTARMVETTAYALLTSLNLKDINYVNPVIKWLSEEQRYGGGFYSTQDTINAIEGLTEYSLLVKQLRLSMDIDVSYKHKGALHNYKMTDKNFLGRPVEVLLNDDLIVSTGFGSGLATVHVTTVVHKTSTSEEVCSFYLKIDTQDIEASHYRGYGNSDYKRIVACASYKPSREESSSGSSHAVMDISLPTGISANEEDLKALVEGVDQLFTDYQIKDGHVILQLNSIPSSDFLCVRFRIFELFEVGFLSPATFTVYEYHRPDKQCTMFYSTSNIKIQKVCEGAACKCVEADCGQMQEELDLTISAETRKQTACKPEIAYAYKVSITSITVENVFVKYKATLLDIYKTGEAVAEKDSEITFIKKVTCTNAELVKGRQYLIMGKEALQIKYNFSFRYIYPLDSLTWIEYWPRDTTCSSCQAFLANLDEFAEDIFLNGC
I'd be grateful if you could share measured Ki for these entries.
Numbers only, in nM.

GSTCPDNYREVDGCDPYDCCLTTWCTNSYCTRYIENLYFQ (modifications not checked) [K136 knob domain peptide cleaved from the 645 Fab]: 18.9

# next binder below
Query (binder): GSGSCPDGFSYRSWDDFCCPMVGRCLAPRNGSENLYFQ (modifications not checked) [K149 knob domain peptide cleaved from the 645 Fab] ; field requested: Ki
26.7
